# maps each entry to its Ki
# Target: Orexin/Hypocretin receptor type 1 (Homo sapiens)
# Sequence (O43613 whole entry): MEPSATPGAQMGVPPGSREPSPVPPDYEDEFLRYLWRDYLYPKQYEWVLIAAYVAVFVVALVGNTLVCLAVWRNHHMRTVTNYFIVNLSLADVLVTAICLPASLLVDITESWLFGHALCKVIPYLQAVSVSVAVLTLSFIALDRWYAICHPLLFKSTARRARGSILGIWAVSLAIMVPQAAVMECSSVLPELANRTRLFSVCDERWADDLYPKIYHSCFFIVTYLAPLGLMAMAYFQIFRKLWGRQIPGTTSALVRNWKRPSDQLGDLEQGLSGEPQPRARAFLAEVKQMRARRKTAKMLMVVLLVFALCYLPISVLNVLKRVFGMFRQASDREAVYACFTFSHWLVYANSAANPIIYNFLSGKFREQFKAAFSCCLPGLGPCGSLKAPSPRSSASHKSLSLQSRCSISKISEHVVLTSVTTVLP
# Protocol notes: Displacement of [3H]-[…] from human orexin 1 receptor expressed in CHO cells incubated for 2 hrs by whole cell radioligand binding assay
Reply numerically in µM, unit not repeated.

O=C1CCCN1c1cccc(C(=O)N(Cc2ccc(F)cc2)C2CC2)c1 32.4
O=C(c1sc2cccc(F)c2c1Cl)N1CCN(Cc2ccco2)CC1 43.7
O=C(/C=C/c1cccc(F)c1)N1CCOc2c(cc(-c3cccnc3)cc2OC[C@H]2CCCCO2)C1 21.4
COc1ccc(C(=O)Oc2cc(=O)n(-c3ccccc3)c3c2CCCC3)cc1 24.5

Now turn to the next compound.
Per the records, this compound ( O=C1NC(=O)C(=Cc2c(OCc3ccccc3F)ccc3ccccc23)C(=O)N1 ) has Ki equal to 33.1
